test_target: T1, human RXFP1 (human, UniProt Q9HBX9 1-757)
T1 sequence (looked up): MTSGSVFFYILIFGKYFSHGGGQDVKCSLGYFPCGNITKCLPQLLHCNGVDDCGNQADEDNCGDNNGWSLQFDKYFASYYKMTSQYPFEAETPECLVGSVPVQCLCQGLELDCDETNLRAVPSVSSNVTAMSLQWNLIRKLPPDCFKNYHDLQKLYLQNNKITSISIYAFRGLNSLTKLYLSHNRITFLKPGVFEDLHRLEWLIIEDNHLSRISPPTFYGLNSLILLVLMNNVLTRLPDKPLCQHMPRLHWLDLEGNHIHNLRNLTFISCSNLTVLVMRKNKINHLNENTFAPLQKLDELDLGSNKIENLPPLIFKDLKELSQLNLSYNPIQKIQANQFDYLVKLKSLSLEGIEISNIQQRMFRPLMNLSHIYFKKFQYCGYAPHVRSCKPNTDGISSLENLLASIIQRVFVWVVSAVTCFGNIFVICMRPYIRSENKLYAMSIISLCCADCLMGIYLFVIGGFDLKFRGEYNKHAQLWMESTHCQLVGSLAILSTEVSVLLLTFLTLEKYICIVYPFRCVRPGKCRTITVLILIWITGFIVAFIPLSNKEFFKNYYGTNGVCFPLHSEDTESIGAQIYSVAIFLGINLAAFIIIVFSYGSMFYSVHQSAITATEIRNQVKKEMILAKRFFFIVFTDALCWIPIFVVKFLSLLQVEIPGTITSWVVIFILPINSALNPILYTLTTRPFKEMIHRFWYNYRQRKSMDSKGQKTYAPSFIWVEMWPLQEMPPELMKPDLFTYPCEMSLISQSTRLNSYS
experiment_notes: cell-based or functional assay
# maps each entry to its Potency (cAMP, transient hRXFP1 in HEK293)
The reply should contain only the number, in nM.

SEQ ID NO: 328 (Fc fusion) DKTHTCPPCPAPEAAGGPSVFLFPPKPKDTLMISRTPEVTCVVVDVSHEDPEVKFNWYVDGVEVHNAKTKPREEQYNSTYRVVSVLTVLHQDWLNGKEYKCKVSNKALAAPIEKTISKAKGQPREPQVYTLPPSRDELTKNQVSLTCLVKGFYPSDIAVEWESNGQPENNYKTTPPVLDSDGSFFLYSKLTVDKSRWQQGNVFSCSVLHEALHSHYTQKSLSLSPGGGSDSWQEEVIKLCGRELVRAQIAICGKSTGGEGEGGEGEGGSRQLYSALANKCCHVGCTKRSLAQFC; 41.9

Now look at this one.
**Query** Fill in Potency (cAMP, transient hRXFP1 in HEK293) for record SEQ ID NO: 361 (Fc fusion) DKTHTCPPCPAPEAAGGPSVFLFPPKPKDTLMISRTPEVTCVVVDVSHEDPEVKFNWYVDGVEVHNAKTKPREEQYNSTYRVVSVLTVLHQDWLNGKEYKCKVSNKALAAPIEKTISKAKGQPREPQVYTLPPSRDELTKNQVSLTCLVKGFYPSDIAVEWESNGQPENNYKTTPPVLDSDGSFFLYSKLTVDKSRWQQGNVFSCSVLHEALHSHYTQKSLSLSPGKGGSDSWKEEVIKLCGRELVRAQIAICGKSTGGGEGGGEGGGEGRQLYSALANKCCHVGCTKRSLARFC
**Result** 2.5
